# assayExplanation: probe aLefty2 binding to arrayed compounds – biochemical, biotinylated probe, 635/667 nm fluorescence, primary screen (AID 1094);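 note: score merges spot fluorescence near 667 nm with spot signal-to-noise ratio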
# conditionDetails: small-molecule microarray, higher = more signal
composite z-score values, listed per item
readoutKind: composite z-score

* O=C1O[C@@H](c2ccccc2)[C@@H](c2ccccc2)N2[C@@H](c3ccc(O)cc3)[C@]3(C(=O)Nc4ccc(C#CCCO)cc43)[C@@H](C(=O)O)[C@H]12 | 1.55
* COc1ccc(CCNC(=O)[C@@]2(C)c3ccccc3C(=O)N(Cc3ccccc3)[C@H]2c2ccc(CO)cc2)cc1 | 0.166
* O=S(=O)(NCCCO)c1ccc(Br)cc1 | -0.18
* Cc1ccc(S[C@]2(C(=O)NCc3ccccc3)CC(=O)N(Cc3cc(C(F)(F)F)cc(C(F)(F)F)c3)[C@@H]2c2ccc(CO)cc2)cc1 | -0.225
* C=C(COC)C(=O)CC[C@H](OC(=O)c1cccnc1)c1ccccc1OCCO | 0.157
* C=C[C@@H](C)[C@@H](OC(=O)Nc1ccc(OC)cc1)c1ccc(O)c2ccccc12 | -0.17
* CCCCN1CC=CC23O[C@@H]4C=CCCOC(=O)C4[C@H]2C(=O)N(CCCO)[C@@H]3C1=O (stereo partly specified) | -0.172
* [N-]=[N+]=NCc1ccccc1[C@@H]1OC(c2ccc(OCCCO)cc2)=N[C@]1(Cc1ccccc1N=[N+]=[N-])C(N)=O | 0.361
* O=C1c2ccccc2[C@](Cc2ccccc2I)(C(=O)O)[C@H](c2ccc(CO)cc2)N1Cc1ccccc1C(F)(F)F | -0.243
* COCCOC(=O)N1C(=O)[C@@]2(c3ccccc31)[C@H](C(=O)N1CCCCCCC1)[C@H]1C(=O)O[C@H](c3ccccc3)[C@H](c3ccccc3)N1[C@@H]2c1ccccc1OCCO | 1.67
* C=CCC(OC(C)=O)[C@@H]1[C@@H](N(Cc2cc3ccccc3o2)C(=O)c2cccc3ccccc23)c2cc(OCCCO)ccc2N1C(=O)Cc1ccc2ccccc2c1 (stereo partly specified) | -0.0898
* C=C(/C(=C/C[C@@H](OC(=O)c1ccncc1)c1ccc(CO)o1)c1cc(C(=O)OC)ccc1OC)C(C)C | -0.129
* CC(C)NC(=O)[C@@]1(c2ccc([N+](=O)[O-])cc2)CC(=O)N(C(C)C)[C@@H]1c1ccc(CO)cc1 | 0.0945
* Cc1ccc(N2C(=O)c3ccccc3[C@@H](C(=O)NCC(C)C)[C@@H]2c2ccc(CO)cc2)nc1 | -0.186
* COCCn1c(C(=O)N2CCCC2)cc2c1C[C@H]1CN(C(=O)c3ccccc3)[C@@](Cc3ccc(OC)cc3)(C(=O)OC)[C@@H]21 | 0.656
* C=CC[C@@]1(C(N)=O)N=C(c2ccc(OCCCO)cc2)O[C@@H]1c1ccccc1N=[N+]=[N-] | 0.429
* CN(C)CCCN1C(=O)[C@@]2(c3ccc([N+](=O)[O-])cc3)CC(=O)N(C3CCCCC3)[C@@H]2c2ccc(CO)cc21 | -0.142
* CC(C)[Si]1(C(C)C)O[C@@H](c2ccccc2)c2cc(-c3ccc(-c4ccc(Cl)c(Cl)c4)o3)nc(CCc3ccccc3)c21 | -0.126
* COC(=O)[C@@]1(Cc2ccc(OC)cc2)[C@H]2c3cc(C(=O)N(C)C)n(CCSCCO)c3C[C@H]2CN1C(=O)c1ccccc1 | 0.162
* O=C1OCCC=C[C@H]2OC34C=CCN(CCN5CCOCC5)C(=O)[C@H]3N(CCO)C(=O)[C@@H]4C12 (stereo partly specified) | -0.145
* Cc1ccc(F)cc1S(=O)(=O)N[C@@H]1CCN(Cc2ccc(C(F)(F)F)cc2)C1 | -0.227
* CCCNC(=O)[C@@]1(C)c2ccccc2C(=O)N(C(C)C)[C@H]1c1ccc(CO)cc1 | 0.0692
* O=C1C2C=CC(C(O)C3CC=CCC3)N(n3cnnc3)C2C(=O)N1Cc1ccccc1 (stereo unspecified) | -0.223
* COc1ccc([Si](C)(C)[C@@H]2[C@@H](CCO)O[C@]3(C(=O)N(Cc4ccccc4)c4ccc(N(C=O)c5ccccc5)cc43)[C@H]2C)cc1 | -0.0479
* Cc1ccccc1/C=C/C=O | -0.13
* COC(=O)[C@@]1(Cc2ccc(F)cc2)[C@H]2c3cc(C(=O)N(C)C)n(CCCNc4ccc(C(F)(F)F)cc4Cl)c3C[C@H]2CN1C(=O)c1ccccc1 | 0.555
* O=C(NCC(F)(F)F)[C@@H]1c2ccccc2C(=O)N(Cc2ccccc2)[C@H]1c1ccc(CO)cc1 | -0.0192
* CCCCCCC#C[Si](O[C@H](c1ccccc1)c1cn([C@H](C)c2ccccc2)nn1)(C(C)C)C(C)C | -0.211
* C=C(/C(=C/C[C@@H](OC(C)=O)c1ccc(CO)o1)c1cnc2ccccc2c1)C(C)C | -0.11
* COCCOC(=O)N1C(=O)[C@@]2(c3cc(C#CC4=CCCCC4)ccc31)[C@H](C(=O)N1CCN(c3ncccn3)CC1)[C@H]1C(=O)O[C@H](c3ccccc3)[C@H](c3ccccc3)N1[C@@H]2c1ccc(OCCO)cc1 | 0.415
* CC(C)C(=C=CC[C@H](O)c1ccccc1OCCO)CCO | 0.0349

* * *

# assayExplanation: plasmodial surface anion channel blockers, osmotic lysis – cell-based, P. falciparum Indochina, OD700, 2 h, primary screen (AID 1155);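 note: lysis reports solute entry through the parasite surface anion channel PSAC; channel blockers reduce lysis of infected cells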
# conditionDetails: P. falciparum Indochina infected erythrocytes, called active from +8 up or from −8 down
Active and inactive are the calls of the source.
Possible outcomes: label 1 (active), label 0 (inactive)

• C=CCC(OC(C)=O)[C@@H]1[C@@H](N(Cc2ccc(-c3ccccc3)cc2)C(=O)c2ccc(C)cc2)c2cc(OCCCO)ccc2N1C(=O)c1ccc2ccccc2n1 (some centres undefined) = label 0
• COc1ccccc1CN1C(=O)c2ccccc2[C@](Cc2ccccc2I)(C(=O)NC2CC2)[C@@H]1c1ccc(CO)cc1 = label 0
• COc1ccc(C#Cc2ccc3c(c2)[C@]2(C(=O)N3)[C@H](C(=O)N3CCN(c4ncccn4)CC3)[C@H]3C(=O)O[C@H](c4ccccc4)[C@H](c4ccccc4)N3[C@@H]2c2ccc(O)cc2)cc1 = label 0
• CC(C)C(O)C1C=CC2C(=O)N(C)C(=O)C2N1N1CCCCC1 (centres undefined) = label 0
• CC(C)(C)OC(=O)CC[C@@]1(C(=O)N2CCOCC2)N=C(c2ccc(OCCCO)cc2)O[C@@H]1c1ccccc1N=[N+]=[N-] = label 1
• C=C(C(=O)CC[C@@H](OC(=O)c1cccnc1)c1ccc(OCCO)cc1)C(C)C = label 0
• CCN(CC)c1ccc(N2CC=CC34O[C@@H]5/C=C\CCC(C)OC(=O)C5[C@H]3C(=O)N(CCCCCCO)[C@@H]4C2=O)cc1 (some centres undefined) = label 0
• CC(C)(C)OC(=O)CC[C@]1(C(=O)NCC(O)CO)N=C(c2ccc(OCCCO)cc2)O[C@H]1c1ccccc1CN=[N+]=[N-] (some centres undefined) = label 0
• CN(C)CCCC[C@@H]1NC(=O)[C@H]2C[C@@H](C(=O)NCCCCCNC(=O)CS)[C@@H](c3ccc(O)cc3)N2C1=O = label 0
• CN1C(=O)C2C=CC(C(O)c3ccc(Br)cc3)N(Nc3ccccc3)C2C1=O (centres undefined) = label 0
• C=CCN1C(=O)[C@@]2(O[C@@H](CCO)[C@H]([Si](C)(C)c3ccc(OC)cc3)[C@H]2C)c2cc(N3C(=O)COc4ccccc43)ccc21 = label 1
• CN1C(=O)C2C=CC(C(O)C(c3ccccc3)c3ccccc3)N(Nc3ccccc3)C2C1=O (centres undefined) = label 0
• O=C1C2C=CC(C(O)c3ccc(Br)cc3)N(n3cnnc3)C2C(=O)N1Cc1ccccc1 (centres undefined) = label 0
• C=CCOC(=O)[C@H]1[C@@H]2C(=O)O[C@@H](c3ccccc3)[C@@H](c3ccccc3)N2[C@@H](c2ccc(OCCOC(=O)[C@@H]3C[C@@H]4C(=O)NCC(=O)N4[C@@H]3c3ccc(O)cc3)cc2)[C@]12C(=O)Nc1ccc(I)cc12 = label 0
• Cc1ccc([C@H]2C(C(=O)O)=C[C@@H](C(C)C)N2S(=O)(=O)c2ccc(C)cc2)cc1 = label 0
• O=C1OCCC/C=C\[C@H]2OC34C=CCN(Cn5nnc6ccccc65)C(=O)[C@H]3N(CCCO)C(=O)[C@@H]4C12 (some centres undefined) = label 0
• C=CC[C@@]1(C(=O)OC)N=C(c2ccc(OCCCO)cc2)O[C@@H]1c1ccccc1CN=[N+]=[N-] = label 1
• CC(C)N1C(=O)c2ccccc2[C@](C)(C(=O)NCCCN(C)C)[C@@H]1c1ccc(CO)cc1 = label 0
• O=C1c2ccccc2[C@](Cc2ccccc2I)(C(=O)O)[C@H](c2ccc(CO)cc2)N1Cc1ccccc1C(F)(F)F = label 0
• CC(C)[C@H]1COC(=O)N1C(=O)[C@H]1[C@@H](c2ccccc2)N(c2ccccc2)O[C@@H]1C = label 0
• Cc1ccc(F)cc1S(=O)(=O)N[C@@H]1CCN(Cc2ccc(C(F)(F)F)cc2)C1 = label 0
• CN(C)CCCC[C@@H]1NC(=O)[C@@H]2C[C@H](C(=O)NCCCCCCN)[C@H](c3ccc(O)cc3)N2C1=O = label 0
• COC(=O)[C@@]1(Cc2ccc(OC)cc2)[C@H]2c3cc(C(=O)N(C)C)n(CCSCCO)c3C[C@H]2CN1C(=O)c1ccccc1 = label 0
• [N-]=[N+]=Nc1ccccc1[C@@H]1OC(c2ccc(OCCCO)cc2)=N[C@]1(CCS(=O)(=O)c1ccccc1)C(=O)N1CCCCC1 = label 1
• CC[C@@H]1C=C(C(=O)O)[C@H](c2ccc(C(C)C)cc2)N1S(=O)(=O)c1ccc(C)cc1 = label 0
• CC(=O)NCCCC[C@@H]1NC(=O)[C@@H]2C[C@H](C(=O)NCCCCCC[N+](C)(C)C)[C@H](c3cccc(OCCO)c3)N2C1=O = label 0
• C[C@H]1C2[C@H](Cc3ccccc3)NC(=O)[C@]23C(=O)N[C@H](Cc2ccccc2)C(=O)N[C@H](Cc2ccccc2)C(=O)NC/C=C/CCC/C=C/C3[C@@H]2O[C@]12C (some centres undefined) = label 0
• O=C(NCC(O)CO)[C@@]1(Cc2ccccc2)N=C(c2ccc(OCCCO)cc2)O[C@H]1c1ccccc1 (some centres undefined) = label 0
• O=C1OCCC=C[C@H]2OC34C=CCN(c5ccc6ccccc6c5)C(=O)[C@H]3N(CCCCCCO)C(=O)[C@@H]4C12 (some centres undefined) = label 0
